System: MS2 coat protein
Assay: apparent KD of MS2 coat protein; designed switch direction (-1 OFF switch, 1 ON switch): 1; higher = weaker reporter binding
Settings: input ligand: FMN 200 uM
result.type: apparent KD of MS2 coat protein
Express the reported value numerically, then name its unit.

Guide cases for apparent KD of MS2 coat protein, answers given:
residue.sequence	apparent KD of MS2 coat protein
AUGAAUUUGCGAGGAUAUCGUUUGUUGAAGUUACGAGAAGGCGCUCACUUUACAUGAGGAUCACCCAUGUUUAUGAUAUAUGAU [JR_SSNG1_Sub074] (Eterna round: R96, puzzle: Same State NG 1)	0.0241 µM
CGGGUGAUCGUAGGAUAUCUAGGAUAUGAACGAGGAUCACCCGAGCAGCAUCAGCGCAUCAGAGGAGAGAAGGACGAUGAUGCG [pwkr ssNG2 2F5 2FMN.19] (Eterna round: R96, puzzle: Same State NG 2)	0.0205 µM
AUAAAACACAUGAGGAUCACCCAUGUGGCCGUAGUCGGCACACAGGAUAUCAAGCAACUAGAGCUUGAGAAGGGUGAGACAAAA [Raar] (Eterna round: R96, puzzle: Same State NG 3)	0.179 µM

Exercise: Give apparent KD of MS2 coat protein (MS2 coat protein) of the following sequence: GAAAAGACAUGAGGAUCACCCAUGUGAAAGCCUAAGGGCCCACAGGAUAUACAGUGAAAAGCACUGUAGAAGGGUGAUAAAGAC [Ordibidi] (Eterna round: R96, puzzle: Same State NG 3)
Key: 0.228 µM

Exercise: Give apparent KD of MS2 coat protein (MS2 coat protein) of the following sequence: UGGUACAUGGGAGGAUAUCCUCAGGAGACAUGAGGAUCACCCAUGUAAUUAAAGCCGAAAGGCAUGGAGAAGGCCCAUGUACCU [JL SSNG1 3.79] (Eterna round: R96, puzzle: Same State NG 2)
Key: 0.0201 µM

Exercise: Give apparent KD of MS2 coat protein (MS2 coat protein) of the following sequence: AUUUUUAAUGCAGGAUAUGAUUAACAUGAGGAUCACCCAUGUGGUGUUGUGAGUAAGGAGAGUGAUCAGAAGGGCAUUUUUUUU [JMF's solution 30] (Eterna round: R96, puzzle: Same State NG 2)
Key: 0.726 µM

Exercise: Give apparent KD of MS2 coat protein (MS2 coat protein) of the following sequence: UUGAUUAGAAAUUAACAUGAGGAUCACCCAUGUAUUGGAUCAGAGGAUAUGCAUGUUUGAUUGUAGCAGAAGGCUGAUUGUGGA [JR_SSNG3_Sub028] (Eterna round: R96, puzzle: Same State NG 3)
Key: 0.0432 µM

Exercise: Give apparent KD of MS2 coat protein (MS2 coat protein) of the following sequence: AGUCCAGCCAGAGCUGGACAAAAGCAUGUACAUGAGGAUCACCCAUGUUCAUGUACAAGCUUUUUGCAAGUCAAAAU [Mat - hsa-mir-208a - Mod of JL - 83] (Eterna round: R96, puzzle: Sensor for hsa-mir-208a)
Key: 0.578 µM

Exercise: Give apparent KD of MS2 coat protein (MS2 coat protein) of the following sequence: UUAACAUGAGGAUCACCCAUGUAUACGUAGUUUGCAUUUUGACAGGAUAUUGAAUAUCUAUAUAGCAAGAAGGGUCGUUAGUCU [JR_SSNG3_Sub007] (Eterna round: R96, puzzle: Same State NG 3)
Key: 0.061 µM

Exercise: Give apparent KD of MS2 coat protein (MS2 coat protein) of the following sequence: GCUUCACAUGAGGAUCACCCAUGUCUUCGGAGUCGAGGAUAUGGUAACUGUAAACAGUUGCCAGAAGGCGAGGAGC [SS1 - Son of Teenbexe v9] (Eterna round: R96, puzzle: Same State 1)
Key: 0.0488 µM

Exercise: Give apparent KD of MS2 coat protein (MS2 coat protein) of the following sequence: UACUUGGUGGUAGGAUAUGUAGGAUAUGGCGAGAGCUAAGCUUGGAAGUCACUUCAGCCAGAAGGACAGAAGGACCAGUAUCUC [pwkr ssNG2 2FMN + F9.11] (Eterna round: R96, puzzle: Same State NG 2)
Key: 1.45 µM

Exercise: Give apparent KD of MS2 coat protein (MS2 coat protein) of the following sequence: GCGAGCGUACUUGCUACAUGAGGAUCACCCAUGUUUGAUGGACAGGAUAUGGUACCGUUUCGGUACCAGAAGGGUUCACAUGUA [JL SSNG3 3.79] (Eterna round: R96, puzzle: Same State NG 3)
Key: 0.0714 µM

Exercise: Give apparent KD of MS2 coat protein (MS2 coat protein) of the following sequence: GGUCGGAACCACAUGAGGAUCACCCAUGUUCCGGAAACGGCACAGGAUAUCUGUCCGAAAAGGUCAGAGAAGGGUGAACCGACC [Fiskers NG3ss - 76] (Eterna round: R96, puzzle: Same State NG 3)
Key: 0.285 µM

----------
Test system: MS2 coat protein
Test: apparent KD of MS2 coat protein; higher = weaker reporter binding
Conditions: Eterna round: R107; input ligand: none
# if value of apparent KD of MS2 coat protein reaches 20 nM, tag Yes; if it stays below, tag No

Answered examples (6):
residue.sequence	tested.system	category.label
UAACAUGAGGAUCACCCAUGUUUAGAUGAACGAGGACCGGUACGGCCGCCACUCGAUAAGUGGCAAGAACGAGGGAUUGUAUGCU [Same State Trp A GF3]	MS2 coat protein	No
AGUAGACACGCGGCCGCCACUUGAGGAUCACCCAGGUGGUGUGUACUUGAAACAAGUGCACAAUCAAGGACCGGGCGUGUCUACA [Omei Tryp B SS D v1]	MS2 coat protein	No
ACGCCCAGGUAGGCUUAAUGGGAUAUGGAAGGAGCGCUGAUGCAAGCAGGUAGGUCGCCAACGGACAUGAGGAUCACCCAUGUAC [Same State - Arginine A (Freestyle 3)]	MS2 coat protein	Yes
AUAAUAAAGUCGGCCGCCACUAUAAACAUGAGGAACAUGAGGAUCACCCAUGUAUGAGGAUCACCUAGGACCGGGACAAAUAUUA [AstrosExyTryB#3]	MS2 coat protein	Yes
GGACUAACCAGAAGGAGCGACGCGCAGAAACUGCAAAAUCCUCCACACGAGGAUCACCCGUGUCAGGUAGGUCGCUGGUUAGUCG [ArgXB 16 #CuTurnoff #MS2Left #StaticStem #Blueprint]	MS2 coat protein	Yes
CCUCAAUCGUCGGCCGCCACUGAAUCAUGCGGAUACAUGAGGAUCACCCAUGUGGGUGUGGUACGCAGGACCGGGACAAGACCCG [#14 Same State - Tryptophan B]	MS2 coat protein	Yes

Shifting focus to the sequence that follows.
Exercise: Check if apparent KD of MS2 coat protein >= 20 nM (inclusive). Item: AUACAUGAGGAUCACCCAUGUAUAGUUGAAGGAGCGACCGGUGGGUCAGGUAGGUCGCAGCGCAUGGCGUCCACGCGUGUAUGCC [#1 Exclusion - Arginine A Attempt #30 (Inspired by Pi)]
Key: No

----------
Tested on: MS2 coat protein
Assay: apparent KD of MS2 coat protein; designed switch direction (-1 OFF switch, 1 ON switch): 1; higher = weaker reporter binding
Details: input ligand: none
# if value of apparent KD of MS2 coat protein reaches 80 nM, tag True; if it stays below, tag False

Answered examples (3):
residue.sequence	category.label
GGAUCGGAGGCAGGAUAUGGGCUCAGAACAUGAGGAUCACCCAUGUAAAACGGCGCAAUGCGCCACCAGAAGGGCCUCCAGUCG [Esussoed] (Eterna round: R96, puzzle: Same State NG 2)	False
GCGAAGAGGUAAGGAUAUUCAUGGCGGAGACAUGAGGAUCACCCAUGUAGGAGACGAAAUCAAAGGGAGAAGGUACCAGGACGC [AK SSNG2-V2-15] (Eterna round: R96, puzzle: Same State NG 2)	True
GAGCCAGUCCGAGGAUAUUCAUAAAUUAAAUACAUGAGGAUCACCCAUGUAGGCAGAGAGCCUUGGGAGAAGGCGGACUGGCUC [Xeonanisa>>3] (Eterna round: R96, puzzle: Same State NG 2)	False

Shifting focus to the sequence that follows.
Exercise: Check if apparent KD of MS2 coat protein >= 80 nM (inclusive). Item: UUGAACAAUUAAGGAUAUCGAGUACAUAUGUUAAACAUGAGGAUCACCCAUGUGGGUUGCGGUAUCGAGAAGGUAAAUUAGAAG [Mat - Same State NG 2 - JL mod - D57] (Eterna round: R96, puzzle: Same State NG 2)
Key: False

----------
System: MS2 coat protein
Test: apparent KD of MS2 coat protein; designed switch direction (-1 OFF switch, 1 ON switch): 1; higher = weaker reporter binding
Settings: Eterna round: R95; input ligand: microRNA oligo, concentration not stated
# if value of apparent KD of MS2 coat protein reaches 20 nM, tag Condition met; if it stays below, tag Condition not met

Answered examples (8):
residue.sequence	category.label
AGCUAUCGAAAACGAUAGCAAAAGCAUGUACAUGAGGAUCACCCAUGUCAUGUACAAGCUUUUUGUUCGUCUUAAAA [Zipper 23 - 14] (puzzle: Sensor for hsa-mir-208a)	Condition not met
AACAAUCUAUCUGAGGAUAUCAUGAAUAAAACAUGAGGAUCACCCAUGUGCAGGAAAACUGCAUAUGAGAAGGCAGAUAGAUUGU [Mat - Same State 2 - Mod - D11] (puzzle: Same State 2)	Condition met
GGUGAGAGAGUCUAGGAUAUGAAAGGAGAGACAUGAGGAUCACCCAUGUAAGAGAGAGAGGAGAGUUAGAAGGAGAAGAGAGUGG [Altered State 2-23 - Jieux - Same State 2] (puzzle: Same State 2)	Condition met
AUUAAACAUGAGGAUCACCCAUGUCAACAAAGUCGAGGAUAUGGGCAAAUUAAAUAAGAACCAGAAGGCGAAUAAU [salish99_ss1_r3_060] (puzzle: Same State 1)	Condition met
CUCAAAACAAGUUGCAGUGUUCGUCUUUAACAUGAGGAUCACCCAUGUAAUAGCCUGGUGGAAGCGCUCGGGCCACC [Qurabila] (puzzle: Sensor for hsa-mir-208a)	Condition not met
GACAUUCUAUCUCAGGAUAUCAUGUCAAAGACAUGAGGAUCACCCAUGUACCAGGAAACUGGUUAUGAGAAGGGAGAUAGAAUGA [Mat - Same State 2 - Mod - D46] (puzzle: Same State 2)	Condition met
GGUCCCUACGCACAGGAUAUUCUUUUGGCAACAUGAGGAUCACCCAUGUGUGCCGAUCAUGGUUAGAAGAAGGGUGGUAGGGACG [Cesovexe] (puzzle: Same State 2)	Condition not met
GCUACAUCGAGCGAGGAUAUGCGGCGUAUAACAUGAGGAUCACCCAUGUCCUUCGAAUCGAGUACGCAGAAGGCGCUACGGUAGC [Big Heel] (puzzle: Same State 2)	Condition met

Exercise: Check if apparent KD of MS2 coat protein >= 20 nM (inclusive). Item: GGUCCCUACGCACAGGAUAUUCUUUUGGCAACAUGAGGAUCACCCAUGUGUGCCGAUCAUGGUUAGAAGAAGGGUGGUAGGGACC [Usisus] (puzzle: Same State 2)
Key: Condition not met

Exercise: Check if apparent KD of MS2 coat protein >= 20 nM (inclusive). Item: AGUCCAGCCUGAGCUGGACAAAAGCAUGUACAUGAGGAUCACCCAUGUUCAUGUACAAGUUUUUUGCUCGUCUUAAA [Zipper 52 - 10] (puzzle: Sensor for hsa-mir-208a)
Key: Condition not met
